Affinity ELISA CPE mutant ratio (1:9, pH 6.0/7.4) overview
- Tgt: T1, Axl protein (human, UniProt P30530 26-451)
- T1 construct: extracellular domain; also called human Axl; hAxl
- T1 sequence (looked up): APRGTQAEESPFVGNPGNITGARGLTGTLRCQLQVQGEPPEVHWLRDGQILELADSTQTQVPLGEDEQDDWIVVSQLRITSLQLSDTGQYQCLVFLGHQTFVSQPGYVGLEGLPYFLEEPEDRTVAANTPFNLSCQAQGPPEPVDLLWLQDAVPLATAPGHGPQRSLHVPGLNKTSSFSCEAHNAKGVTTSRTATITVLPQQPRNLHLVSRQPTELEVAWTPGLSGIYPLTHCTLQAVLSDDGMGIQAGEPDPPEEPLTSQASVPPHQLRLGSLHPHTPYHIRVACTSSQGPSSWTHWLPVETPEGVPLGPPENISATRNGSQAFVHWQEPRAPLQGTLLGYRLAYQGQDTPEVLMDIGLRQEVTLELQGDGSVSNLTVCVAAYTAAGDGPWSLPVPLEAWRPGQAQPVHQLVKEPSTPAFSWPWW
- Method: ELISA, 1:9 dilution, pH 6.0 over pH 7.4
Readout Type: Affinity ELISA CPE mutant ratio (1:9, pH 6.0/7.4) (ratio)

{"columns": ["Binder", "Unit Of Measure", "Val"],
 "data": [
  ["HC-M107F (antibody, V domains shown) VH: EVQLVQSGAEVKKPGATVKISCKVSGYSFTGHTMNWIRQPPGKGLEWIGLIKPSNGGTSYNQKFKGRVTISADKSISTAYLQWSSLKASDTAMYYCAHGHYESYFAFDYWGQGTLVTVSS VL: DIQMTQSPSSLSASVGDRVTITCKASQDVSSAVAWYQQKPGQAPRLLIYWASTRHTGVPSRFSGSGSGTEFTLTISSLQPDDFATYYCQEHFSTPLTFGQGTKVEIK", "ratio", 1.09],
  ["HC-W110P (antibody, V domains shown) VH: EVQLVQSGAEVKKPGATVKISCKVSGYSFTGHTMNWIRQPPGKGLEWIGLIKPSNGGTSYNQKFKGRVTISADKSISTAYLQWSSLKASDTAMYYCAHGHYESYFAMDYPGQGTLVTVSS VL: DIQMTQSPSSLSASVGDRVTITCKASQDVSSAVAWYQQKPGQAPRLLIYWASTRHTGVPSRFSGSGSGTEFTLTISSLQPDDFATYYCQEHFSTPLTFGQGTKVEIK", "ratio", 2.15],
  ["HC-H100W (antibody, V domains shown) VH: EVQLVQSGAEVKKPGATVKISCKVSGYSFTGHTMNWIRQPPGKGLEWIGLIKPSNGGTSYNQKFKGRVTISADKSISTAYLQWSSLKASDTAMYYCAHGWYESYFAMDYWGQGTLVTVSS VL: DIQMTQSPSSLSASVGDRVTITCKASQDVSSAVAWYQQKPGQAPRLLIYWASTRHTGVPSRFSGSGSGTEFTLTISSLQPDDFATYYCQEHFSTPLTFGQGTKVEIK", "ratio", 5.91],
  ["HC-M107E (antibody, V domains shown) VH: EVQLVQSGAEVKKPGATVKISCKVSGYSFTGHTMNWIRQPPGKGLEWIGLIKPSNGGTSYNQKFKGRVTISADKSISTAYLQWSSLKASDTAMYYCAHGHYESYFAEDYWGQGTLVTVSS VL: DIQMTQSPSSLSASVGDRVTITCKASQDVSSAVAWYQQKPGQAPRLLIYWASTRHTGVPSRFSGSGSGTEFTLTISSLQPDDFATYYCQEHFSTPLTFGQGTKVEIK", "ratio", 1.36],
  ["HC-S103M (antibody, V domains shown) VH: EVQLVQSGAEVKKPGATVKISCKVSGYSFTGHTMNWIRQPPGKGLEWIGLIKPSNGGTSYNQKFKGRVTISADKSISTAYLQWSSLKASDTAMYYCAHGHYEMYFAMDYWGQGTLVTVSS VL: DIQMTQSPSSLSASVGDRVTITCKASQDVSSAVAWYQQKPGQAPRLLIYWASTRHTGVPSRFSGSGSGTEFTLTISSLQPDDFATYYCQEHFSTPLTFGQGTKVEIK", "ratio", 1.81],
  ["HC-W110R (antibody, V domains shown) VH: EVQLVQSGAEVKKPGATVKISCKVSGYSFTGHTMNWIRQPPGKGLEWIGLIKPSNGGTSYNQKFKGRVTISADKSISTAYLQWSSLKASDTAMYYCAHGHYESYFAMDYRGQGTLVTVSS VL: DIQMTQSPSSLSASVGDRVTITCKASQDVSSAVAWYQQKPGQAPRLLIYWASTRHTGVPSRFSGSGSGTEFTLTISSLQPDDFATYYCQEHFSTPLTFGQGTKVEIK", "ratio", 1.06],
  ["HC-A106Y (antibody, V domains shown) VH: EVQLVQSGAEVKKPGATVKISCKVSGYSFTGHTMNWIRQPPGKGLEWIGLIKPSNGGTSYNQKFKGRVTISADKSISTAYLQWSSLKASDTAMYYCAHGHYESYFYMDYWGQGTLVTVSS VL: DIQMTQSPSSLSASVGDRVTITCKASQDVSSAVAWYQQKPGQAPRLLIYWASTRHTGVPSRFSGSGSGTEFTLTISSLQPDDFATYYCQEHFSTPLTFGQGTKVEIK", "ratio", 3.06],
  ["HC-A106D (antibody, V domains shown) VH: EVQLVQSGAEVKKPGATVKISCKVSGYSFTGHTMNWIRQPPGKGLEWIGLIKPSNGGTSYNQKFKGRVTISADKSISTAYLQWSSLKASDTAMYYCAHGHYESYFDMDYWGQGTLVTVSS VL: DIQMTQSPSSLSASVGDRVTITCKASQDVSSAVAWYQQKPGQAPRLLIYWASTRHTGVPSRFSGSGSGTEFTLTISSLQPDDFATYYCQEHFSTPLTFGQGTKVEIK", "ratio", 2.51],
  ["HC-W110T (antibody, V domains shown) VH: EVQLVQSGAEVKKPGATVKISCKVSGYSFTGHTMNWIRQPPGKGLEWIGLIKPSNGGTSYNQKFKGRVTISADKSISTAYLQWSSLKASDTAMYYCAHGHYESYFAMDYTGQGTLVTVSS VL: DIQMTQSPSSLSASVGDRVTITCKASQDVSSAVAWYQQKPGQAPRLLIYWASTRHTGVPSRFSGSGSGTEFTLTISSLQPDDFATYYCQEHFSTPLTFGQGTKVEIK", "ratio", 1.37],
  ["HC-S103D (antibody, V domains shown) VH: EVQLVQSGAEVKKPGATVKISCKVSGYSFTGHTMNWIRQPPGKGLEWIGLIKPSNGGTSYNQKFKGRVTISADKSISTAYLQWSSLKASDTAMYYCAHGHYEDYFAMDYWGQGTLVTVSS VL: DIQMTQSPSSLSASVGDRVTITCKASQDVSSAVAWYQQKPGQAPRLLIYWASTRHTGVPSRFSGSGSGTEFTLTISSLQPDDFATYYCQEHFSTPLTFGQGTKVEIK", "ratio", 2.23]
]}

The values you see were collected from patent US20190177417A1.
